Test system: HS-Sch-2
Method Summary: drug sensitivity score (DSS, CellTiter-Glo viability, 72 h) (DSS (dimensionless)); higher = more sensitive; extreme values may be limits of the assay
Measure Name: drug sensitivity score
Form: value (number only, do not type unit).

# input Entry under review: COc1cc2nccc(Oc3ccc(NC(=O)C4(C(=O)Nc5ccc(F)cc5)CC4)cc3)c2cc1OC [Cabozantinib] (max concentration tested 1000 nM) . Reported drug sensitivity score?
# output 0.13

# input Entry under review: Cc1cc(-c2ncc(-c3cccnc3)cc2/C=C/c2ccccc2)cnc1-c1cccnc1 [Pyridoclax] (max concentration tested 25000 nM) . Reported drug sensitivity score?
# output 1.52

# input Entry under review: CN(C)c1nc(N(C)C)nc(N(C)C)n1 [Altretamine] (max concentration tested 10000 nM) . Reported drug sensitivity score?
# output 0

# input Entry under review: Cc1ccc(F)c(NC(=O)Nc2ccc(-c3cccc4[nH]nc(N)c34)cc2)c1 [Linifanib] (max concentration tested 1000 nM) . Reported drug sensitivity score?
# output 0

# input Entry under review: O=C(O)CSc1cc(NS(=O)(=O)c2ccc(Br)cc2)c2ccccc2c1O [UMI-77] (max concentration tested 100000 nM) . Reported drug sensitivity score?
# output 14.4

# input Entry under review: CC[C@H](Nc1ncnc2[nH]cnc12)c1nc2cccc(F)c2c(=O)n1-c1ccccc1 [Idelalisib] (max concentration tested 10000 nM) . Reported drug sensitivity score?
# output 0

# input Entry under review: C[C@@H]1C[C@H]2O[C@@H]2/C=C\C=C\C(=O)Cc2c(Cl)c(O)cc(O)c2C(=O)O1 [Radicicol] (max concentration tested 10000 nM) . Reported drug sensitivity score?
# output 16.3

# input Entry under review: CC(=O)O[C@H]1C(=O)[C@@]2(C)[C@H]([C@H](OC(=O)c3ccccc3)[C@]3(O)C[C@H](OC(=O)[C@H](O)[C@@H](NC(=O)c4ccccc4)c4ccccc4)C(C)=C1C3(C)C)[C@]1(OC(C)=O)CO[C@@H]1C[C@@H]2O [Paclitaxel] (max concentration tested 1000 nM) . Reported drug sensitivity score?
# output 23.3

# input Entry under review: Cc1ccc(-c2cc(C(F)(F)F)nn2-c2ccc(S(N)(=O)=O)cc2)cc1 [Celecoxib] (max concentration tested 10000 nM) . Reported drug sensitivity score?
# output 0

# input Entry under review: C[C@@H]1CN(CC(=O)Nc2ccc3c(c2)Cc2cccc(-c4cc(=O)cc(N5CCOCC5)o4)c2S3)C[C@H](C)O1 (max concentration tested 25000 nM) . Reported drug sensitivity score?
# output 8.7

# input Entry under review: Cn1ncc(Cl)c1-c1cc(C(=O)N[C@H](CN)Cc2cccc(F)c2)sc1Cl [Afuresertib] (max concentration tested 1000 nM) . Reported drug sensitivity score?
# output 0

# input Entry under review: OCCn1cc(-c2cnc3nnn(Cc4ccc5ncccc5c4)c3n2)cn1 (max concentration tested 2500 nM) . Reported drug sensitivity score?
# output 0

###

Test system: YST-1
Method Summary: drug sensitivity score (DSS, CellTiter-Glo viability, 72 h) (DSS (dimensionless)); higher = more sensitive; extreme values may be limits of the assay
Hi all, reminder that labels come from drug sensitivity score, split as low group: < 0.7; middle group: ≥ 0.7 and < 7; high group: ≥ 7

# input Category of Nc1nc(Cl)nc2c1ncn2[C@H]1C[C@H](O)[C@@H](CO)O1 [Cladribine] (max concentration tested 1000 nM) , please.
# output middle group

# input Category of Cc1cc(Nc2nc(N[C@@H](C)c3ncc(F)cn3)ncc2Cl)[nH]n1 [AZD1480] (max concentration tested 1000 nM) , please.
# output low group

# input Category of CNC(=O)c1cc(COc2nnc(Nc3ccc(Cl)cc3)c3ccoc23)ccn1 [Telatinib] (max concentration tested 10000 nM) , please.
# output middle group

# input Category of CN1CCC(COc2cnc(-c3cccc(Cn4nc(-c5cccc(C#N)c5)ccc4=O)c3)nc2)CC1 (max concentration tested 1000 nM) , please.
# output low group

# input Category of CN(C)C(=O)c1cc2cnc(Nc3ccc(N4CCNCC4)cn3)nc2n1C1CCCC1 [Ribociclib] (max concentration tested 10000 nM) , please.
# output middle group

# input Category of Cn1ncc(Cl)c1-c1cc(C(=O)N[C@H](CN)Cc2cccc(F)c2)sc1Cl [Afuresertib] (max concentration tested 1000 nM) , please.
# output middle group

# input Category of CC(=O)Nc1ccc(C(=O)Nc2ccccc2N)cc1 [Tacedinaline] (max concentration tested 1000 nM) , please.
# output low group

# input Category of CC(=O)c1c(C)c2cnc(Nc3ccc(N4CCNCC4)cn3)nc2n(C2CCCC2)c1=O [Palbociclib] (max concentration tested 10000 nM) , please.
# output middle group

# input Category of CC(C)(C)c1cnc(CSc2cnc(NC(=O)C3CCNCC3)s2)o1 [SNS-032] (max concentration tested 10000 nM) , please.
# output high group

# input Category of CN(C)Cc1ccc(S(=O)(=O)n2ccc(/C=C/C(=O)NO)c2)cc1 [Resminostat] (max concentration tested 10000 nM) , please.
# output high group

# input Category of COc1ccc(Cn2ccc3ccc(C(=O)NO)cc32)cc1 (max concentration tested 10000 nM) , please.
# output middle group

# input Category of CC(C)(C#N)c1cc(Cn2cncn2)cc(C(C)(C)C#N)c1 [Anastrozole] (max concentration tested 10000 nM) , please.
# output low group

# input Category of O=c1[nH]c(=O)n([C@H]2C[C@H](O)[C@@H](CO)O2)cc1F [Floxuridine] (max concentration tested 10000 nM) , please.
# output high group

# input Category of Nc1nc2[nH]cc(CCc3ccc(C(=O)N[C@@H](CCC(=O)O)C(=O)O)cc3)c2c(=O)[nH]1 [Pemetrexed] (max concentration tested 10000 nM) , please.
# output middle group

# input Category of O=C(O)CNC(=O)c1c(O)c2ccccc2n(Cc2ccccc2)c1=O [IOX-2] (max concentration tested 50000 nM) , please.
# output low group

# input Category of Nc1ncnc2c1nc(N)n2[C@@H]1O[C@H](CO)[C@@H](O)[C@H]1O [8-amino-adenosine] (max concentration tested 50000 nM) , please.
# output high group

# input Category of Cc1ncc(Cl)cc1NCc1ccc(C(=O)N[C@@H](CC2CCCC2)C(=O)NC2CC2)s1 (max concentration tested 5000 nM) , please.
# output high group

# input Category of Cc1[nH]c2ccccc2c1CCNCc1ccc(/C=C/C(=O)NO)cc1 [Panobinostat] (max concentration tested 1000 nM) , please.
# output high group

# input Category of C=C1C[C@@H]2[C@H](CC[C@]3(C)C(=O)CC[C@@H]23)[C@@]2(C)C=CC(=O)C=C12 [Exemestane] (max concentration tested 10000 nM) , please.
# output low group

# input Category of COc1ccc(-c2nc(N3CCOCC3)c3sc(CN(C)c4ncc(C(=O)NO)cn4)cc3n2)cn1 [CUDC-907] (max concentration tested 10000 nM) , please.
# output high group

# input Category of Cc1nc(Nc2ncc(C(=O)Nc3c(C)cccc3Cl)s2)cc(N2CCN(CCO)CC2)n1 [Dasatinib] (max concentration tested 1000 nM) , please.
# output middle group

# input Category of O=C(NOCCO)c1ccc2cncn2c1Nc1ccc(I)cc1F [GDC-0623] (max concentration tested 2500 nM) , please.
# output low group

# input Category of CNC(=O)c1ccc2cc([C@@]3(O)CCn4cncc43)ccc2c1 [Orteronel] (max concentration tested 10000 nM) , please.
# output low group

# input Category of CCCCc1nc2cc(/C=C/C(=O)NO)ccc2n1CCN(CC)CC [Pracinostat] (max concentration tested 10000 nM) , please.
# output high group
